- Measured target: T1, recombinant human α5β1 integrin (human, UniProt P08648 42-995; P05556 21-728)
- T1 construct: also called rh-α5β1
- T1 sequence (P08648 42-995 limits assumed, form in doubt, chain 1 of 2): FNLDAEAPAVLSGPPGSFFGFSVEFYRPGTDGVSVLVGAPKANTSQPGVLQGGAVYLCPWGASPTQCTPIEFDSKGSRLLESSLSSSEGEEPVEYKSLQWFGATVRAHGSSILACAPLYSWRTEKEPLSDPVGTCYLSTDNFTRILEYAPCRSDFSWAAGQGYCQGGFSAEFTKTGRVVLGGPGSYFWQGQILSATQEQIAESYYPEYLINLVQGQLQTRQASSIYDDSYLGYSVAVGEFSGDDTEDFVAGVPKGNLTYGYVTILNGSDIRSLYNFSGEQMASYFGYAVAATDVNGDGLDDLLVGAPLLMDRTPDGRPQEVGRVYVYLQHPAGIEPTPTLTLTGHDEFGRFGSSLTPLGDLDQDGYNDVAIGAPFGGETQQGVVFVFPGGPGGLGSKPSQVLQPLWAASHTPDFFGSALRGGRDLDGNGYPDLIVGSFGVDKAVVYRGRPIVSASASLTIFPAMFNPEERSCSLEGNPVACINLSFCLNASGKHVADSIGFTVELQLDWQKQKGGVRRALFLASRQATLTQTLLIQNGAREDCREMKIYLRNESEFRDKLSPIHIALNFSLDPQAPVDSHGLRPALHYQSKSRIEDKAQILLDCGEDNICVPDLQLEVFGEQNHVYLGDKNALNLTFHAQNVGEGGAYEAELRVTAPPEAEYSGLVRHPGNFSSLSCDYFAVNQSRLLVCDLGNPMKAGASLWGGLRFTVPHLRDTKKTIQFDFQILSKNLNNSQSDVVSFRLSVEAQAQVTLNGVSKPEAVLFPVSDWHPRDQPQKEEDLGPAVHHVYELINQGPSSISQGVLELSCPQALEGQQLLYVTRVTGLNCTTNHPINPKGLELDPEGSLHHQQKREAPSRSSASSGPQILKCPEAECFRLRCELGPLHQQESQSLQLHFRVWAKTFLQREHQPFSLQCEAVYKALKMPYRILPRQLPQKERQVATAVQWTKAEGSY
- T1 sequence (P05556 21-728 limits assumed, form in doubt, chain 2 of 2): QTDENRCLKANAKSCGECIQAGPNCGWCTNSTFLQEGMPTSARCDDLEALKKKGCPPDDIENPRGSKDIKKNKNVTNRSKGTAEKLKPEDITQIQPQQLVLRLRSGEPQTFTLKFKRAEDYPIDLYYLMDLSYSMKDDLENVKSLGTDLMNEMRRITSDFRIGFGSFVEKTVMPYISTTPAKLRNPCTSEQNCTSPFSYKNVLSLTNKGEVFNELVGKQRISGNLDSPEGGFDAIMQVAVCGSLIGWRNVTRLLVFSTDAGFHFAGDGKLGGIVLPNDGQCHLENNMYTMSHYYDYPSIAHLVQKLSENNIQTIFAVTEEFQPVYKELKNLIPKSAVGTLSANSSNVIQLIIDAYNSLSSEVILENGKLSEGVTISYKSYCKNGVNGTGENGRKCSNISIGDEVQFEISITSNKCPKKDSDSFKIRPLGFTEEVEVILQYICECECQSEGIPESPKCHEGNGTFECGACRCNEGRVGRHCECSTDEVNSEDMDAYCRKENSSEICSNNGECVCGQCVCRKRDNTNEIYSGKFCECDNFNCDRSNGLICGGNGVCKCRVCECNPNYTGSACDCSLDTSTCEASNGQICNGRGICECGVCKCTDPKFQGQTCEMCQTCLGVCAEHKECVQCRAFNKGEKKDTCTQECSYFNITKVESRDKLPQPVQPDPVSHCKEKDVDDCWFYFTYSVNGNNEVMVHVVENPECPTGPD
- Assay comment: ELISA, coated integrin, supernatant 1:10
Field: Absorbance 450 nm. Provide a value for each of the binders that follow.
Numbers only, in A450.

# Binder, Absorbance 450 nm [A450]
measured = [
    ("A-15H11 (antibody, V domains shown, mouse hybridoma supernatant) VH: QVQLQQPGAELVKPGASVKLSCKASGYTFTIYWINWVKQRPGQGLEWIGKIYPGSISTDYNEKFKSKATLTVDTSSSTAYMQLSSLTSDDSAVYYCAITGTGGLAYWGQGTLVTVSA VL: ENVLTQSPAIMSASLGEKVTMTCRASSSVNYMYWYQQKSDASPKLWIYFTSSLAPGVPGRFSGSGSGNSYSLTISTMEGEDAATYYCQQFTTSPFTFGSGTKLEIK", 1.25),
    ("A-14G08 (antibody, V domains shown, mouse hybridoma supernatant) VH: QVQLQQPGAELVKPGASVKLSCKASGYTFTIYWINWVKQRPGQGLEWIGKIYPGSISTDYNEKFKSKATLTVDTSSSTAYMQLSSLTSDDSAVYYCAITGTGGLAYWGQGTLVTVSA VL: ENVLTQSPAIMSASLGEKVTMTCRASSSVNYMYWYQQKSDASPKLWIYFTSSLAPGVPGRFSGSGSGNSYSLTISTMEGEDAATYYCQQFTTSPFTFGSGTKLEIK", 1.17),
    ("C-14D12 (antibody, V domains shown, mouse hybridoma supernatant in this assay) VH: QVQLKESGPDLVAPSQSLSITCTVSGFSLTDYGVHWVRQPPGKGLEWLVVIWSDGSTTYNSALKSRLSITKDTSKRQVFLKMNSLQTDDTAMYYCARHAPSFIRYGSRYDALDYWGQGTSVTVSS VL: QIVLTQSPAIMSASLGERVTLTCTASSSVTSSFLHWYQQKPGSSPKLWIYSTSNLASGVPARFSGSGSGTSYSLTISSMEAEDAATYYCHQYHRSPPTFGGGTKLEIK", 0.702),
]

Now take the following binder into account.
Asked: Dear colleague, I am looking for the recorded Absorbance 450 nm of the following binder: A-3A08 (antibody, V domains shown, mouse hybridoma supernatant) VH: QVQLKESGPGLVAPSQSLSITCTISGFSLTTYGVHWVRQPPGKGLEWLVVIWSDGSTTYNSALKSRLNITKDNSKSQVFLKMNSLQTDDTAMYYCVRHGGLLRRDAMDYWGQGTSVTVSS VL: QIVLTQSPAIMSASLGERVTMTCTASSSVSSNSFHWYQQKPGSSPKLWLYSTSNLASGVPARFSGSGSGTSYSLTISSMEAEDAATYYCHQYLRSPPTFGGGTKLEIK
Given back: 0.352

Measured values drawn from patent US20240279345A1 for this set.
